meta.source: paper PMC8126837

- Target system: SARS-CoV-2 receptor-binding domain (RBD), wild type (SARS-CoV-2, UniProt P0DTC2, DyLight 488 (NHS ester, about 1.9 dye/protein) in the FRET assay only)

Binder	binding result
WNb 33 (VHH) VHH: QVQLQESGGGLVQPGGSLRLSCAASGFTFSSYLMGWARQVPGKGLEWVAGIYSDGSTYYADSVKGRFIISRDNAKNTVYLQMNSLKPEDTAVYYCAKDRMEGSTWPERDLGSWGQGTQVTVSS	binds
WNb 63 (VHH) VHH: QVQLQESGGGLVQPGGSLRLSCAASGFTFRRYLMGWARQVPGKGLEWVSGIYSDGSTYYADSVKGRFTISRDNAKNTVYLQMNSLKPEDTAVYYCAADRMDGSTWPERDFGSWGQGTQVTVSS	binds
WNb 3 (VHH) VHH: QVQLQESGGGLVQPGGSLRLSCAASGFTLDYYAIGWFRQAPGKEREGVSCISSSGGSTNYADSVKGRFTISRDNAKNTVYLQMNSLKPEDTAVYYCAAQMGSSRYCPIFIPGEGMDYWGKGTQVTVSS	binds
WNb 24 (VHH) VHH: QVQLQESGGGLVQAGESLRLSCAASGRTFSRYAMGWFRQAPGKEREFVAAVSWNGGNTYYADSVKGRFTISRDNAKNTLYLQMNSLKPEDTAVYYCAAGGEPVVVIKLRNADEYDFLGQGTQVTVSS	binds
